Biological target: human SSTR5 (Homo sapiens, UniProt P35346)
Construct: expressed in transfected cells
Sequence (P35346 whole entry): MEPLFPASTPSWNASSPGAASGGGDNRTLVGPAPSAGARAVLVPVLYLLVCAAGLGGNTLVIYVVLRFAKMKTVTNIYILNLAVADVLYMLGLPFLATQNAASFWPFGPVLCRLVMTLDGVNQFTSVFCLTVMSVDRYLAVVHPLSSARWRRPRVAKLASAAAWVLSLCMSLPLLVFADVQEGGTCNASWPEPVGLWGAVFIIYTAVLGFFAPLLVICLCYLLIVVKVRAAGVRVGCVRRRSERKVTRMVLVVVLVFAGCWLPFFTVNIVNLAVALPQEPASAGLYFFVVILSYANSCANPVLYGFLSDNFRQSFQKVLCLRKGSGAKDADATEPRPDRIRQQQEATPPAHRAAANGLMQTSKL
Experiment: Evaluation of human SSTR5 antagonist activity using intracellular cAMP concentration as index
Assay type: cell-based
Conditions: 1 μM test compound; CHO (dhfr-) cells stably expressing human SSTR5; 0.1 nM somatostatin 28, 0.3 μM forskolin; cAMP HTRF; read-out: Inhibition rate against SSTR5 at 1 μM
value.type: inhibition at 1 µM (%)

- molecule: "CCCc1nc2c(cc1C(=O)O)C(=O)N(C1CCN(Cc3cc(C4CC4)c(-c4ccc(F)cc4)cc3OC(C)C)CC1)CC2 [Example 37]"
  inhibition at 1 µM, %: 97
- molecule: "Cc1nc2c(cc1C(=O)O)C(=O)N(C1CCN(Cc3cc(C4CC4)c(-c4ccc(F)cc4)cc3OC(C)C)CC1)CC2 [Example 7]"
  inhibition at 1 µM, %: 88
- molecule: "CCCc1nc2c(cc1C(=O)O)C(=O)N(C1CCN(Cc3cc(OCC)c(-c4ccc(F)c(F)c4)c(C4CC4)c3)CC1)CC2 [Example 62]"
  inhibition at 1 µM, %: 92
- molecule: "CCOc1cc(-c2ccc(F)cc2)c(C2CC2)cc1CN1CCC(N2CCc3nc(COC)c(C(=O)O)cc3C2=O)CC1 [Example 47]"
  inhibition at 1 µM, %: 106
- molecule: "CCOc1cc(-c2ccc(F)cc2)c(C2CC2)cc1CN1CCC(N2CCc3nc(C4CC4)c(C(=O)O)cc3C2=O)CC1 [Example 3]"
  inhibition at 1 µM, %: 115
- molecule: "CCCc1nc2c(cc1C(=O)O)C(=O)N(C1CCN(Cc3cc(OCC)c(-c4ccc(F)cc4)c(C4CC4)c3)CC1)CC2 [Example 36]"
  inhibition at 1 µM, %: 94
